Cited source: PubChem BioAssay

assay: probe aNog binding to arrayed compounds – biochemical, biotinylated probe, 635/667 nm fluorescence, primary screen (AID 1115); settings: small-molecule microarray, higher = more signal;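 note: probe is biotinylated aNog protein used at 0.15 µg/mL for 1 h at 4 C; z-score combines 667 nm fluorescence of each spot with its signal to noise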
MEASUREMENT KIND: composite z-score

>>> experimental_value("CCOC(=O)C[C@H]1[C@H](OC(=O)c2ccc(-c3ccccc3)cc2)[C@@H](NC(=O)c2ccccc2)c2cc(OCCCO)ccc2N1C(=O)c1ccc2ccccc2n1")
0.176
>>> experimental_value("C=CCN(Cc1ccccc1)C(=O)C(c1cccs1)N(C(=O)/C=C\\C(=O)O)c1ccc(CCOCCO)cc1 (configuration not stated)")
-0.242
>>> experimental_value("CS(=O)(=O)CCOC(=O)C1=CC(CCCO)=CC(c2ccc(CN3CCCC3)cc2)N(Cc2cccc(OC(F)(F)F)c2)C=C1C(=O)OCCS(C)(=O)=O (configuration not stated)")
-0.149
>>> experimental_value("[N-]=[N+]=Nc1ccccc1[C@H]1OC(c2ccc(OCCCO)cc2)=N[C@@]1(Cc1ccccc1)C(=O)N1CCOCC1")
0.88
>>> experimental_value("CCOC(=O)C[C@H]1[C@H](OC(=O)c2ccc(C(=O)c3ccccc3)cc2)[C@@H](NC(=O)Cc2ccc(OC)cc2)c2cc(OCCCO)ccc2N1C(=O)c1ccc2ccccc2n1")
-0.526
>>> experimental_value("[N-]=[N+]=NCc1ccccc1[C@H]1OC(c2ccc(OCCCO)cc2)=N[C@@]1(Cc1ccccc1)C(=O)N1CCCCC1")
-0.768
>>> experimental_value("C=CC[C@@]1(C(=O)N2CCCCC2)N=C(c2ccc(OCCCO)cc2)O[C@@H]1c1ccccc1CN=[N+]=[N-]")
1.18

----------
Recorded measurements of z-score, one per entry
target: NADPH oxidase 5 (Homo sapiens) (UniProt Q96PH1); assay: compounds shifting NOX5 Amplex Red fluorescence – cell-based, HEK293-NOX5, NOX inhibitor project, primary screen (AID 1161); details: HEK293-NOX5, ionomycin, 45 min, higher = more signal
Sequence (Q96PH1 whole entry, looked up): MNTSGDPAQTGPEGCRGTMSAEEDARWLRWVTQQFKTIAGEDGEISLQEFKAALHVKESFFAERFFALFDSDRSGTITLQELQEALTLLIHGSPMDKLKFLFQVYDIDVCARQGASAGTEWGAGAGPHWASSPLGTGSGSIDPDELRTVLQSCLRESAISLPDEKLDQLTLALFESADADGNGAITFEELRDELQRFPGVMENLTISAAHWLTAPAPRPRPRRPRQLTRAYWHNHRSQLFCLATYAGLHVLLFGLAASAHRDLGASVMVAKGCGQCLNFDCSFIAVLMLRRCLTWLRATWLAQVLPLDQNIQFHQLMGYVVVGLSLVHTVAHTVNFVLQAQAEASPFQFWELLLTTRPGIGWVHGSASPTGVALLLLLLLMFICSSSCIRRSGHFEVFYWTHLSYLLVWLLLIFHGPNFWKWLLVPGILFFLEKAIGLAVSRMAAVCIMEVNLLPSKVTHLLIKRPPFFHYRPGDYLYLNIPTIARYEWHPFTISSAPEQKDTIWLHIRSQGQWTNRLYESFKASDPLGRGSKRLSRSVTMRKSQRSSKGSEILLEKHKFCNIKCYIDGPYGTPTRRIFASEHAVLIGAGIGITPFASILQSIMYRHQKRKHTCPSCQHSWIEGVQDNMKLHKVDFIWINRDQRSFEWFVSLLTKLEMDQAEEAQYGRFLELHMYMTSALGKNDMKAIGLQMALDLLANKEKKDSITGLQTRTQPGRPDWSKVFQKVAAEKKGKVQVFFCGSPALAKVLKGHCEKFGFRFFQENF
MEASUREMENT KIND: z-score

>>> experimental_value("CCCCN1CC=CC23O[C@@H]4C=CCOC(=O)[C@@H]4[C@H]2C(=O)N(CCCCCCO)[C@@H]3C1=O (some centres undefined)")
1.63
>>> experimental_value("CCOC(=O)C[C@H]1[C@H](OC(=O)c2ccc(C(=O)c3ccccc3)cc2)[C@@H](NC(=O)c2ccccc2)c2cc(OCCCO)ccc2N1C(=O)c1ccccc1")
0.0914
>>> experimental_value("C=CCNC(=O)[C@@H]1[C@H]2C(=O)O[C@H](c3ccccc3)[C@H](c3ccccc3)N2[C@H](c2ccc(OCCO)cc2)[C@@]12C(=O)N(C(=O)OCCOC)c1ccc(C#CCC(C(=O)OC)C(=O)OC)cc12")
1.37
>>> experimental_value("OCC1C=C(/C=C/c2ccccc2)CN1Cc1ccccc1Br (centres undefined)")
-0.691

----------
target: NADPH oxidase 2 (Homo sapiens) (UniProt P04839); assay: compounds shifting NOX2 Amplex Red fluorescence – cell-based, HEK293-NOX2, PMA-stimulated, NOX inhibitor project, primary screen (AID 1159); conditions: 45 min, higher = more signal, called active from +8 up or from −8 down; note: test concentration not given here
Sequence (P04839 whole entry, looked up): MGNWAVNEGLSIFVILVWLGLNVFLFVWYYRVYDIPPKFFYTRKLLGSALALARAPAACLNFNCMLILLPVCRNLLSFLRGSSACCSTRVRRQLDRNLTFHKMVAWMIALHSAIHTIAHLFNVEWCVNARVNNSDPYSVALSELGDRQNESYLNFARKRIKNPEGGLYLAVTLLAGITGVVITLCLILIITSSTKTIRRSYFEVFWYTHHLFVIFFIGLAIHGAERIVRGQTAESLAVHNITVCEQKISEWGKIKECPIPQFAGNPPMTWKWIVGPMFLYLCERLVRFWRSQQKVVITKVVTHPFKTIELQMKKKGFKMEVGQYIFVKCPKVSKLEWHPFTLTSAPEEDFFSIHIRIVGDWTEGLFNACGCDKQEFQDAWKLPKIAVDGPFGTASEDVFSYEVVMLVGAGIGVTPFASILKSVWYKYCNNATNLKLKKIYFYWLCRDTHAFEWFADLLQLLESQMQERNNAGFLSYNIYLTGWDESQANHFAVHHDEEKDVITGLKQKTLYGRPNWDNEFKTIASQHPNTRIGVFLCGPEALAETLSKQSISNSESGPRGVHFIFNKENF
I would appreciate it if you labelled entries 1 when z-score is 0.5 or higher, otherwise 0.

>>> assigned_class("COC(=O)[C@@]1(Cc2ccc(F)cc2)[C@H]2c3cc(C(=O)N(C)C)n(Cc4ccc(C)o4)c3C[C@H]2CN1C(=O)c1ccccc1")
0
>>> assigned_class("O=C1O[C@@H](c2ccccc2)[C@@H](c2ccccc2)N2[C@@H](c3ccccc3OCCO)[C@]3(C(=O)Nc4ccccc43)[C@@H](C(=O)O)[C@H]12")
1
>>> assigned_class("CC(C)(C)OC(=O)CC[C@]1(C(=O)NCCN2CCOCC2)COC(c2ccc(OCCCO)cc2)=N1")
0
>>> assigned_class("C#CCNCc1ccccc1")
0
>>> assigned_class("C=CC[C@]1(C(N)=O)N=C(c2ccc(OCCCO)cc2)O[C@H]1c1ccccc1")
1

----------
assay: probe aWnt5a binding to arrayed compounds – biochemical, biotinylated probe, 635/667 nm fluorescence, primary screen (AID 1113); details: small-molecule microarray, higher = more signal;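 note: score merges 667 nm fluorescence intensity with signal-to-noise per printed feature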
Let's look at some molecules and their measured composite z-score.
MEASUREMENT KIND: composite z-score

>>> experimental_value("CN1CCC(CCCO)=CC1c1cccs1 (stereo not drawn)")
-0.176
>>> experimental_value("NCCCCCCNC(=O)[C@H]1C[C@H]2C(=O)N[C@@H](Cc3ccccc3)C(=O)N2[C@H]1c1cccc(OCCO)c1")
-0.0718
>>> experimental_value("COC(=O)C(CC#Cc1ccc2c(c1)[C@]1(C(=O)N2)[C@H](c2ccccc2OCCO)N2[C@H](c3ccccc3)[C@H](c3ccccc3)OC(=O)[C@H]2[C@@H]1C(N)=O)C(=O)OC")
0.349
>>> experimental_value("[N-]=[N+]=NCc1ccccc1C[C@@]1(C(=O)NCC(O)CO)N=C(c2ccc(OCCCO)cc2)O[C@@H]1c1ccccc1 (stereo partly drawn)")
-0.0285
>>> experimental_value("COCCCNC(=O)[C@@]1(Cc2ccccc2)N=C(c2ccc(OCCCO)cc2)O[C@H]1c1ccccc1CN=[N+]=[N-]")
0.0445
>>> experimental_value("CN(C)CCCCNC(=O)[C@@H]1C[C@@H]2C(=O)N[C@@H](CCCCN)C(=O)N2[C@@H]1c1ccc(O)cc1")
0.0725
>>> experimental_value("CN1C(=O)C2C=CC(C(O)C=Cc3ccc([N+](=O)[O-])cc3)N(Nc3ccccc3)C2C1=O (stereo not drawn)")
0.0182
>>> experimental_value("CCOc1cc(C(O)C2C=CC3C(=O)N(c4ccccc4)C(=O)C3N2Nc2ccc(C(C)C)cc2)ccc1O (stereo not drawn)")
0.0433

----------
experiment: forskolin-driven CRE-LacZ activity in PC12 – cell-based, CRE-LacZ reporter, forskolin-stimulated, primary screen (AID 1146); conditions: luminescence, 4.5 h, higher = more signal, called active from +8 up or from −8 down;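 note: PC12 cells with 6xCRE LacZ reporter stimulated by forskolin 10 µM; beta-galactosidase reporter signal reflecting CREB driven transcription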
z-score class ranges: low-valued: < -0.6; mid-valued: ≥ -0.6 and < 0.8; high-valued: ≥ 0.8

>>> assigned_class("[N-]=[N+]=NCc1ccccc1C[C@@]1(C(=O)NCC(O)CO)N=C(c2ccc(OCCCO)cc2)O[C@@H]1c1ccccc1 (some centres undefined)")
"mid-valued"
>>> assigned_class("C=C(CCCC)/C(=C/C[C@@H](OC(C)=O)c1ccccc1OCCO)c1cc(C(=O)OC)ccc1OC")
"low-valued"
>>> assigned_class("Cc1ccc(C2C3C(=O)CC4C(=O)N(c5ccccc5)C(=O)C4C3CN2S(=O)(=O)c2ccc(C)cc2)cc1 (centres undefined)")
"low-valued"
>>> assigned_class("CCCC(=O)N(CCc1c[nH]c2ccccc12)[C@@H]1CC(C(=O)NCCO)=C[C@H](Oc2c(I)cc(CO)cc2OC)[C@H]1O")
"low-valued"
>>> assigned_class("CC(C)[Si](C#C[Si](C(C)C)(C(C)C)C(C)C)(O[C@H](C)c1cn(Cc2ccccc2)nn1)C(C)C")
"low-valued"
>>> assigned_class("C=C(CCCC)C(=O)CC[C@@H](OC(C)=O)c1ccc(CO)o1")
"mid-valued"
>>> assigned_class("C#CCN1[C@H](/C=C/C2CC2)[C@H](Cc2ccccc2)OC(=O)[C@@H]1Cc1ccccc1")
"high-valued"
>>> assigned_class("COC(=O)c1c(CC[C@@H](CO)NC(=O)NCCc2c[nH]c3ccccc23)oc(C(=O)Cc2ccccc2)c1C(=O)OC")
"low-valued"
>>> assigned_class("C=CCOC(=O)[C@H]1[C@@H]2C(=O)O[C@@H](c3ccccc3)[C@@H](c3ccccc3)N2[C@@H](c2ccc(OCCOC(=O)[C@H]3C[C@H]4C(=O)N[C@@H](CCCCN(C)C)C(=O)N4[C@H]3c3cccc(OCCO)c3)cc2)[C@]12C(=O)Nc1ccc(I)cc12")
"high-valued"
>>> assigned_class("COCCOC(=O)N1C(=O)[C@@]2(c3ccccc31)[C@H](C(=O)N1CCc3cc(OC)c(OC)cc3C1)[C@H]1C(=O)O[C@H](c3ccccc3)[C@H](c3ccccc3)N1[C@@H]2c1ccc(O)cc1")
"high-valued"
>>> assigned_class("CC(C)(C)OC(=O)CC[C@]1(C(=O)NCCN2CCOCC2)COC(c2ccc(OCCCO)cc2)=N1")
"mid-valued"
>>> assigned_class("Cc1ccc(S(=O)(=O)N2C[C@@H](C(=O)O)[C@H](Sc3ccccc3)C[C@H]2c2ccccc2)cc1")
"mid-valued"
>>> assigned_class("COCCOC(=O)N1C(=O)[C@@]2(c3cc(C#CC4(O)CCCCCC4)ccc31)[C@H](C(=O)Nc1nc3ccccc3s1)[C@H]1C(=O)O[C@H](c3ccccc3)[C@H](c3ccccc3)N1[C@@H]2c1ccc(OCCO)cc1")
"high-valued"

----------
Collected composite z-score values appear next to each entry.
molecular target: Pro-neuregulin-1, membrane-bound isoform (Homo sapiens) (UniProt Q02297); test: small molecules binding neuregulin-1 protein – biochemical, small-molecule microarray, fluorescence 635/667, psychiatric disease protein project, primary screen (AID 1075); conditions: NRG1 binding, 635 nm fluorescence, higher = more signal;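 note: score combines 667 nm spot fluorescence with signal to noise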
Sequence (Q02297 whole entry, looked up, canonical isoform): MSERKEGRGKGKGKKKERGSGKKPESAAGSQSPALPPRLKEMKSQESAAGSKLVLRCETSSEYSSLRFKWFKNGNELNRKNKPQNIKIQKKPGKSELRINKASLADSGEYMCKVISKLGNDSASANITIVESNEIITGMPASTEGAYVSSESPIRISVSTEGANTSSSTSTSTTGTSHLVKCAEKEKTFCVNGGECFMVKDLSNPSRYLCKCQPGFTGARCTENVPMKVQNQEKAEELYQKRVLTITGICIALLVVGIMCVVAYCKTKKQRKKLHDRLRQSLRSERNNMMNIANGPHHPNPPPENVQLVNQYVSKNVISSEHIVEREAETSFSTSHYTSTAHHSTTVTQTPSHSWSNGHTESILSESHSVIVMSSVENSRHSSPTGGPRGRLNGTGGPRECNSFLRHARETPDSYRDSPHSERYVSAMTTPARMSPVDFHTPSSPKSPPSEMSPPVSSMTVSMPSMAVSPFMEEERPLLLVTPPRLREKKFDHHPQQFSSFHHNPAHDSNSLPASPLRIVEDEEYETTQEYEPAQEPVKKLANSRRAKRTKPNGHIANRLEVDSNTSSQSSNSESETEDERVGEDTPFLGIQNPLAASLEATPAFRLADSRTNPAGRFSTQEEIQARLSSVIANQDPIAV
MEASUREMENT KIND: composite z-score

>>> experimental_value("O=C1C2C=CC(C(O)COCc3ccccc3)N(Nc3ccc([N+](=O)[O-])cc3)C2C(=O)N1c1ccccc1 (configuration not stated)")
0.661
>>> experimental_value("C=CCC(OC(C)=O)[C@@H]1[C@@H](N(Cc2ccc(-c3cccc(C(F)(F)F)c3)o2)C(=O)Cc2ccc(OC)cc2)c2cc(OCCCO)ccc2N1C(=O)c1ccc2ccccc2c1 (some centres not stated)")
0.522
>>> experimental_value("CC(C)NC(=O)[C@@H]1c2ccccc2C(=O)N(C(C)C)[C@H]1c1ccc(CO)cc1")
0.853
>>> experimental_value("COC(=O)[C@@]1(Cc2ccccc2)[C@H]2c3cc(C(=O)N(C)C)n(CCc4c[nH]c5ccc(O)cc45)c3C[C@H]2CN1C(=O)c1ccccc1")
-0.198
>>> experimental_value("CCCCC(=C=CC[C@@H](O)c1cccc(OCCO)c1)C[C@@H](O)c1ccccn1")
0.23
>>> experimental_value("O=C1[C@H]2C=C(I)[C@H](C[C@@H]2OCCCCO)[C@@]12CO2")
-0.456
>>> experimental_value("COC(=O)[C@@]1(Cc2ccccc2)[C@H]2c3cc(C(=O)N(C)C)n(Cc4ccc(OC)c(OC)c4)c3C[C@H]2CN1C(=O)c1ccccc1")
1.62
